# target-under-test: MCL-1/Bim interaction (recombinant human MCL-1 protein, residues 171-327; biotinylated human Bim peptide, residues 51-76) (Homo sapiens (Human))
# Sequence (Q07820 171-327): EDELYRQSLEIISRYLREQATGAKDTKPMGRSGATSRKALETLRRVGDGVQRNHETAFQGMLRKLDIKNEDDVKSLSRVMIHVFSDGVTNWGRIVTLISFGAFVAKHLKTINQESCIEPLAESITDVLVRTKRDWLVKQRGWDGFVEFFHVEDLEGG
# experiment-summary: MCL-1/Bim Binding AlphaLISA Assay
# assay-context: 0.0625 nM 6xHis-Mcl-1 (171-327), 0.0625 nM biotinylated-Bim peptide
property-name: IC50 (nM)

Previously resolved entries follow.
// query What value of IC50 has been recorded for this entry: COC[C@H]1C[C@@H](NC(=O)N[S@@]2(=O)=NC(=O)c3ccc4c(c3)N(C[C@@H]3CC[C@H]3[C@@H](OC)/C=C/C[C@H](C)C2)C[C@@]2(CCCc3cc(Cl)ccc32)CO4)C1 [Example 210]
// result 0.071

// query What value of IC50 has been recorded for this entry: COC[C@H]1C[C@@H]1NC(=O)N[S@@]1(=O)=NC(=O)c2ccc3c(c2)N(C[C@@H]2CC[C@H]2[C@@H](OC)/C=C/C[C@H](C)C1)C[C@@]1(CCCc2cc(Cl)ccc21)CO3 [Example 303]
// result 0.045

// query What value of IC50 has been recorded for this entry: CCC(=O)N[S@]1(=O)=NC(=O)c2ccc3c(c2)N(C[C@@H]2CC[C@H]2[C@@H](OC)/C=C/CC[C@H]1CC)C[C@@]1(CCCc2cc(Cl)ccc21)CO3 [Example 64]
// result 5.2

// query What value of IC50 has been recorded for this entry: CO[C@H]1/C=C/C[C@H](C)C[S@@](=O)(NC(=O)[C@@H](O)Cc2ccccc2)=NC(=O)c2ccc3c(c2)N(C[C@@H]2CC[C@H]21)C[C@@]1(CCCc2cc(Cl)ccc21)CO3 [Example 121]
// result 0.163

P: CCC(=O)NS1(=O)=NC(=O)c2ccc3c(c2)N(C[C@@H]2CC[C@H]2[C@@H](OC)/C=C/CC[C@H]1CC)C[C@@]1(CCCc2cc(Cl)ccc21)CO3 (single isomer, unassigned) [Example 65]
Q: CO[C@H]1/C=C/C[C@H](C)[C@@H](C)[S@@](=O)(NC(=O)CCc2ccnn2C)=NC(=O)c2ccc3c(c2)N(C[C@@H]2CC[C@H]21)C[C@@]1(CCCc2cc(Cl)ccc21)CO3 [Example 49]
// query Could you determine which record has the numerically smaller IC50? Candidates: P and Q Kindly give the label for the entry you pick.
// result Q
(Q: 0.1 nM, P: 1.8 nM)

P: COC(=O)N1CC[C@H](C(=O)N[S@@]2(=O)=NC(=O)c3ccc4c(c3)N(C[C@@H]3CC[C@H]3[C@@H](OC)/C=C/C[C@H](C)C2)C[C@@]2(CCCc3cc(Cl)ccc32)CO4)C1 [Example 439]
Q: CO[C@H]1/C=C/CCC[S@@](=O)(NC(=O)CCc2cnccn2)=NC(=O)c2ccc3c(c2)N(C[C@@H]2CC[C@H]21)C[C@@]1(CCCc2cc(Cl)ccc21)CO3 [Example 35]
// query Could you determine which record has the numerically smaller IC50? Candidates: P and Q Kindly give the label for the entry you pick.
// result P
(P: 0.138 nM, Q: 0.2 nM)
